- PROCEDURE_TEXT: Cmax in rat at 2 mg/kg, po
- Format: ADME, organism-based
- Design: dose 2 mg/kg, route oral
- CONDITION_NOTES: in vivo
READOUT_LABEL: Cmax
Give your result as the value with the unit written after it.

Requested field: Cmax. Item: O=C(NN1C(=O)[C@@H]2C3C=CC(C4CC43)[C@@H]2C1=O)c1ccc(C(F)(F)F)cc1 (stereo partly specified)
920 ng/mL

###

I'd be grateful if you could share measured half-life for these entries.
- PROCEDURE_TEXT: Metabolic stability in mouse Liver S9 fraction
- Type: ADME, subcellular

> print(dat)
                                   compound  reported.measurement
1  O=C(NN1C(=O)[C@@H]2C3C=CC(C4CC43)[C@@H]2C1=O)c1ccc(Br)cc1 (some centres not stated)              > 3.33 h

Please look at the following compound next.
Could you share which half-life value was measured for O=C(NN1C(=O)[C@@H]2C3C=CC(C4CC43)[C@@H]2C1=O)c1ccc(C(F)(F)F)cc1 (some centres not stated) ?
> 3.33 h
